These measurements were taken from patent US11197846B2.

# Assay details: Plasma pharmacokinetics of nabilone and gabapentin after oral PP-01 once daily for four doses (LC-MS/MS), Example 1 clinical study
# Settings: human, plasma, oral, 600 mg, t1/2, gabapentin 600 mg; Sequence AB; Days 1-2; arithmetic mean
Readout: half-life (h)
Field: numeric (h). Do not append units.

Input: Consider the compound shown here: NCC1(CC(=O)O)CCCCC1 What is its recorded half-life?
Output: 5.4

----------
# Assay details: Plasma pharmacokinetics of nabilone and gabapentin after oral PP-01 once daily for four doses (LC-MS/MS), Example 1 clinical study
# Settings: human, plasma, oral, 6 mg, Tmax, nabilone 6 mg; Days 4-5; both sequences; arithmetic mean ± SD
Readout: Tmax (h)
Field: numeric (h). Do not append units.

Input: Consider the molecule shown here: CCCCCCC(C)(C)c1cc(O)c2c(c1)OC(C)(C)C1CCC(=O)CC21 (racemic) What is its recorded Tmax?
Output: 2.3
